Structures can show the parent of a compound that is named as a salt.
assay_metric: melting point

compound	assay_metric	experimental_value
CNc1nc(NCc2ccc(NC(=O)c3ccc(Cl)cc3)cc2)c2ccc(C)cc2n1	melting point	264 to 266 °C
Cc1ccc2c(NCc3ccc(NC(=O)c4ccc(F)cc4)cc3)nc(NCCc3ccccn3)nc2c1	melting point	112 to 115 °C
Cc1ccc2c(NCc3ccc(NC(=O)c4ccc(F)cc4)cc3)nc(N3CCN[C@@H](C)C3)nc2c1	melting point	200 to 202 °C
C/C=C/c1ccc2c(NCc3ccc(NC(=O)c4ccc(Cl)nc4)cc3)nc(N(C)C)nc2c1 (as salt: HCl)	melting point	185 °C
CCc1ccc2c(NCc3ccc(NC(=O)c4ccc(F)cc4)cc3)nc(N(C)C)nc2c1 (as salt: HCl)	melting point	270 °C

Hey, can you go through the list below and give me melting point for every item?
1. O=C(O)CNc1nc(NCc2ccc(NC(=O)c3ccc(F)cc3)cc2)c2ccccc2n1 (as salt: HCl)
2. Cc1ccc2c(NCc3ccc(NC(=O)C4CCN(Cc5ccc(C(F)(F)F)cc5)CC4)cc3)nc(N(C)C)nc2c1
3. O=C(Nc1ccc(CNc2nc(NC3CC3)nc3ccccc23)cc1)c1ccc(F)cc1
4. CNc1nc(NCc2ccc(NC(=O)c3ccc(C)nc3)cc2)c2ccc(C)cc2n1
5. Cc1ccc2c(NCc3ccc(NC(=O)c4ccc(Cl)cc4)cc3)nc(N3CCCCCC3)nc2c1
6. CNc1nc(NCc2ccc(NC(=O)c3ccc(Br)cc3)cc2)c2ccc(C)cc2n1

Response:
1. 235 °C
2. 126 to 128 °C
3. 189 °C
4. 257 to 259 °C
5. 192 to 194 °C
6. 295 to 298 °C

Hello, the source for this data is patent US20090004185A1, in case you need it.
